# Subject of test: human IL-23R (Homo sapiens, UniProt Q5VWK5)
# Sequence (Q5VWK5 22-629): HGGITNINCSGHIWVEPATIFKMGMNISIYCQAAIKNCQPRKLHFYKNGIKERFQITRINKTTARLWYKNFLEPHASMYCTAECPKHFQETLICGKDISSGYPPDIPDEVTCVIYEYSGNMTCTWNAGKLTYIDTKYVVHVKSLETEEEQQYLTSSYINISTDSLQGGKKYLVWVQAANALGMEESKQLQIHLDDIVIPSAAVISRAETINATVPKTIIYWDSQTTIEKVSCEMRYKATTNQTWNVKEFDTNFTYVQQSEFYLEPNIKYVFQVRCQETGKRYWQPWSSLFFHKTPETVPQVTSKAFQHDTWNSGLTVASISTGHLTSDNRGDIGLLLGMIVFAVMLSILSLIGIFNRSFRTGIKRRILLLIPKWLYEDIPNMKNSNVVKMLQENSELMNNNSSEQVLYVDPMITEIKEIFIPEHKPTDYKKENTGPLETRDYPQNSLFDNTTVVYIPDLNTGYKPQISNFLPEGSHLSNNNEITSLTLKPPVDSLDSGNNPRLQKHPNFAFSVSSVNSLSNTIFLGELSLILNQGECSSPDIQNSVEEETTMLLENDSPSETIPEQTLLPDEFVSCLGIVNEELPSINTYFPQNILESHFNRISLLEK
# Test protocol: biochemical
# Assay conditions: read-out: % displacement (hIL-23R binding)
*1 amine or outer side, *2 acyl side, *3 side chain or, on linkers, in order; H or OH if unused. Where a SMILES comes first, the peptide text is derived from it. Bridges are numbered along the chain shown (N, C = ends). [ ]: non-standard residue; d: D form. 2Nal = N[C@@H](Cc1ccc2ccccc2c1)C(=O)O; AEF = NCCOc1ccc(C[C@H](N)C(=O)O)cc1; X1 = O=C(Cc1ccc(CN[*:1])cc1)[*:2]; 3Pal = N[C@@H](Cc1cccnc1)C(=O)O; Cit = NC(=O)NCCC[C@H](N)C(=O)O; αMeL = CC(C)C[C@](C)(N)C(=O)O; Dab = NCC[C@H](N)C(=O)O
Measured attribute: Emax (%)
Give the quantity in %, number only.

[Q] Tell me the measured Emax of CNC(=O)[C@H](Cc1cccnc1)NC(=O)[C@H](CCN)NC(=O)[C@@H]1CCC(=O)NCc2ccc(cc2)CC(=O)N[C@@H](CO)C(=O)N[C@H]2CCC(=O)NCC[C@H](NC(=O)[C@H](CCCNC(N)=O)NC(=O)[C@H](Cc3c[nH]c4ccccc34)NC2=O)C(=O)N[C@@H](Cc2ccc(OCCN)cc2)C(=O)N[C@@H](Cc2ccc3ccccc3c2)C(=O)N[C@@](C)(CC(C)C)C(=O)N1 [Compound 26] ([X1]SEW[Cit][Dab][AEF][2Nal][αMeL]E[Dab][3Pal]-NHMe; lactam 3-6, N-10) , please.
[A] 95
